Parameter: NAPE-PLD % inhibition at 10 µM ± SD. Scope: all listed entries.
molecular target: human NAPE-PLD (Homo sapiens, UniProt Q6IQ20); construct: Full length human cDNA NAPE-PLD was obtained from Natsuo Ueda; expressed in transfected cells; host or cells: HEK293T (transient), membrane fraction; experiment: NAPE-PLD inhibition; format: biochemical; details: 10 µM
Sequence (Q6IQ20 whole entry): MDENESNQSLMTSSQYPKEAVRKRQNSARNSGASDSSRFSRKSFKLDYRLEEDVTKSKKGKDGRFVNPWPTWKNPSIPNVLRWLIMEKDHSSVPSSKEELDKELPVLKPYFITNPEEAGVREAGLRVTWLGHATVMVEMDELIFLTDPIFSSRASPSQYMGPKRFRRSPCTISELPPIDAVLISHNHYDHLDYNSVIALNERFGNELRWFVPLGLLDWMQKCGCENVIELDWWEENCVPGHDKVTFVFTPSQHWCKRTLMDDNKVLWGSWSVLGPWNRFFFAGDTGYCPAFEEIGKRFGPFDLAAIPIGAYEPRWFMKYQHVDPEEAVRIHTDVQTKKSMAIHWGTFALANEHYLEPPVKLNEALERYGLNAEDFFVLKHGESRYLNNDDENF

# molecule, NAPE-PLD % inhibition at 10 µM ± SD, %
rows = [
    ("Cc1c(C(=O)c2cccc3ccccc23)c2cccc3c2n1[C@H](CN1CCOCC1)CO3", 8),
    ("CCCn1c(C)c(C(=O)c2cccc3ccccc23)c2ccccc21", -4),
    ("CN1CCCC[C@H]1Cn1cc(C(=O)c2cc([N+](=O)[O-])ccc2I)c2ccccc21 [(S)-AM1241]", 33),
    ("Cc1c(C(=O)NN2CCCCC2)nn(-c2ccc(Cl)cc2Cl)c1-c1ccc(I)cc1", 10),
    ("CCCC(C)(C)c1ccc2c(c1)OC(C)(C)[C@@H]1CC=C(C)C[C@@H]21", 3),
    ("CCCCCc1cc(O)c2c(c1)OC(C)(C)[C@@H]1CCC(C)=C[C@@H]21 [Δ9-THC, Δ^9-tetrahydrocannabinol]", 0),
    ("CN1CCCCC1Cn1cc(C(=O)c2cc([N+](=O)[O-])ccc2I)c2ccccc21 (racemic) [(rac)-AM1241]", 29),
    ("CCCCCCC(C)(C)c1cc(OC)c(C2=C[C@H]3CC[C@]2(CO)C3(C)C)c(OC)c1", 8),
]

====

Parameter: Pampa Peff. Scope: all listed entries.
details: membrane permeation coefficient

# compound, Pampa Peff, cm/s*10-6
data = [
    ("CCCCC/C=C\\C/C=C\\C/C=C\\C/C=C\\CCCC(=O)NCCO [Anandamide, N-arachidonoylethanolamine]", 0.26),
    ("CCCC(C)(C)c1ccc2c(c1)OC(C)(C)[C@@H]1CC=C(C)C[C@@H]21 [JWH133]", 1.86),
    ("CCCCCCC(C)(C)c1cc(OC)c(C2=C[C@H]3CC[C@]2(CO)C3(C)C)c(OC)c1 [HU910]", 0.45),
    ("Cc1ccc2c(c1)Cc1c(C(=O)NN3CCCCC3)nn(-c3ccc(Cl)cc3Cl)c1-2 [Gp-1a]", 0),
]

====

biological target: UniProtKB P47936; test: Operational analysis of biased signalling
Parameter: β-AR-cAMP ΔΔlogR. Scope: all listed entries.
observable: β-AR-cAMP ΔΔlogR

# molecularString, measValue
rows = [
    ("CCCCCCC(C)(C)c1cc(OC)c(C2=C[C@H]3CC[C@]2(CO)C3(C)C)c(OC)c1", 0.63),
    ("CCCC(C)(C)c1ccc2c(c1)OC(C)(C)[C@@H]1CC=C(C)C[C@@H]21", 1.04),
    ("CCCCCCC(C)(C)c1cc(OC)c([C@@H]2C=C(CO)[C@@H]3C[C@H]2C3(C)C)c(OC)c1", 0.69),
    ("CCCCCCC(C)(C)c1ccc([C@@H]2C[C@H](O)CC[C@H]2CCCO)c(O)c1", 0),
]

====

Parameter: ΔLogR β-AR. Scope: all listed entries.
molecular target: mCB2R (Mus musculus); experiment: Operational analysis of biased signalling; conditions: reference CP55940
Sequence (P47936 whole entry): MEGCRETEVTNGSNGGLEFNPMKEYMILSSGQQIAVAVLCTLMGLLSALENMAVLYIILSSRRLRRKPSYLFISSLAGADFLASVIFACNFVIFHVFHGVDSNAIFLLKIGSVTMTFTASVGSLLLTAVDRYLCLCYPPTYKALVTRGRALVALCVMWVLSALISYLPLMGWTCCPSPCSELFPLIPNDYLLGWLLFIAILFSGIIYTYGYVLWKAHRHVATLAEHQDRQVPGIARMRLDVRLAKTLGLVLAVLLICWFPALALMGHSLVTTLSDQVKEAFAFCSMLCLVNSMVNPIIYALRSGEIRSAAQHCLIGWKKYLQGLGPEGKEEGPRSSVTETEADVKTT
observable: ΔLogR β-AR

# compound, measValue
records = [
    ("CCCCCCC(C)(C)c1cc(OC)c(C2=C[C@H]3CC[C@]2(CO)C3(C)C)c(OC)c1 [HU910]", -1.41),
    ("CCCCCCC(C)(C)c1ccc([C@@H]2C[C@H](O)CC[C@H]2CCCO)c(O)c1 [CP55940]", 0),
    ("CCCCCCC(C)(C)c1cc(OC)c([C@@H]2C=C(CO)[C@@H]3C[C@H]2C3(C)C)c(OC)c1 [HU308]", -1.77),
    ("CCCC(C)(C)c1ccc2c(c1)OC(C)(C)[C@@H]1CC=C(C)C[C@@H]21 [JWH133]", -1.42),
]
